test: Pharmacokinetics of probe substrates in rats with or without poziotinib pre-treatment; settings: male, Sprague-Dawley, rat, in vivo, po, AUC(0–t), Treated group: oral probe cocktail (10 mg/kg; tolbutamide 1 mg/kg) after 7 days oral poziotinib 5 mg/kg, rats, n = 6
parameter: AUC(0-t) (ng·h/mL)
A number alone suffices; assume ng·h/mL.

In: Quick check: AUC(0-t) of COc1ccc2c(c1)[C@]13CCCC[C@@H]1[C@H](C2)N(C)CC3 ?
Out: 640

----------
Property: Vd/F; scope: individual compounds
assay: Pharmacokinetics of probe substrates in rats with or without poziotinib pre-treatment; conditions: male, Sprague-Dawley, rat, plasma, po, 10 mg/kg, Vz/F, Control group: oral probe cocktail only (10 mg/kg; tolbutamide 1 mg/kg), rats, n = 6
A number alone suffices; assume L/kg.

| compound | Vd/F / L/kg |
| --- | --- |
| CC(NC(C)(C)C)C(=O)c1cccc(Cl)c1 (centres unmarked) | 85.4 |

In: Quick check: Vd/F of CCOc1ccc(NC(C)=O)cc1 ?
Out: 1.57
